target system: PKA kinase (Homo sapiens)
method: Quantitative analysis of inhibitory reaction against kinase on gold nanoparticle-peptide chip by secondary ion mass spectrometry
Format: biochemical
settings: ATP 10 μM, kinase 1 U, 30° C. for 2 hours; non-linear regression, equation 3
Procedure: As one example for analyzing an inhibitory reaction against kinase activity, the effect of 4-cyano-3-methylisoquinoline (CMIQ, Sigma), an inhibitor against PKA kinase, was illustrated. […] In order to calculate percent inhibition, substitution from the percent phosphorylation value calculated in the equation 1 is made. […] More specifically, after the phosphorylation level at each concentration of the inhibitor is calculated, percent inhibition can be calculated according to the following equation 2: […]
pIC50: −log10 of the molar value.
metric name: pIC50

Give the measured pIC50 of Cc1ncc2ccccc2c1C#N . ~7.06

Origin of the recorded values: patent US7951572B2
